# assayed-target: GORASP2, Q9H8Y8
# assay-notes: holdup assay
# Design: key: below the threshold = too weak to quantify, mostly under pKd 3.1 to 4
# study-conditions: plain residues with an end cap or a label only (N-terminal biotin on a linker: ado-ado)
value-kind: pKd

Use these answered entries as a reference point.
binder="QKNKDREYYV [NRXN3, Q9HDB5]" value_kind=pKd experimental_value=4.67
binder="GSQSQVETEA [FKBP4, Q02790]" value_kind=pKd experimental_value="below the threshold"
binder="KKTPVSRSHL [SLC22A3, O75751]" value_kind=pKd experimental_value="below the threshold"
binder="WAKEKQHTRL [SLC17A1, Q14916]" value_kind=pKd experimental_value="below the threshold"
binder="NSTHNLKDYV [CLDN20, P56880]" value_kind=pKd experimental_value="below the threshold"

Query string: // query pKd value for entry EKPIDSETKM [SLC1A3, P43003]
Result string: below the threshold

Query string: I would be grateful if you could share the reported pKd for SSSVNVSSNL [CXCR1, P25024] .
Result string: below the threshold

Query string: Fill blank: measured pKd of the binder SGDGKTSVWI [GJC1, P36383] is ____.
Result string: 5.03

Query string: Name the recorded pKd for SRPHTNETSL [MCC, P23508] .
Result string: below the threshold

Query string: Name the recorded pKd for NKSEPFLTWL [WWTR1, Q9GZV5] .
Result string: 4.9

Query string: Recorded pKd for EPAKETTTNV [SLC2A3, P11169] , please?
Result string: 3.49
